Values from ChEMBL document CHEMBL2424609

SYSTEM TESTED: UniProt:P18031
PROTOCOL: Non-competitive reversible inhibition of human PTP1B
CONDITION: read-out: pIC50 (converted)
Values of IC50 strictly less than 4 µM map to rule met, and values of at least 4 µM map to rule not met.

Consider the following illustrative entries.
Say whether its IC50 is strictly beneath 4 µM. Entry: "CCOc1ccc(N2N=C3COC(C)(C)C=C3C(C#N)=C2N)cc1" rule met

Say whether its IC50 is strictly beneath 4 µM. Entry: "COc1ccccc1N1N=C2COC(C)(C)C=C2C(C#N)=C1N" rule not met

Say whether its IC50 is strictly beneath 4 µM. Entry: "CCc1cccc(N2N=C3COC(C)(C)C=C3C(C#N)=C2N)c1" rule not met

Say whether its IC50 is strictly beneath 4 µM. Entry: "N#CC1=C(N)N(c2ccccc2)N=C2CSCC=C21" rule met

Say whether its IC50 is strictly beneath 4 µM. Entry: "N#CC1=C(N)N(c2ccccc2F)N=C2CSCC=C21" rule not met

Kindly consider the entry below.
Say whether its IC50 is strictly beneath 4 µM. Entry: "CC1(C)C=C2C(=NN(c3ccccc3)C(N)=C2C#N)CO1" rule not met

====

Catalogue of IC50 values
SYSTEM TESTED: Tyrosine-protein phosphatase non-receptor type 1 (Homo sapiens, UniProt P18031)
Sequence (P18031 whole entry): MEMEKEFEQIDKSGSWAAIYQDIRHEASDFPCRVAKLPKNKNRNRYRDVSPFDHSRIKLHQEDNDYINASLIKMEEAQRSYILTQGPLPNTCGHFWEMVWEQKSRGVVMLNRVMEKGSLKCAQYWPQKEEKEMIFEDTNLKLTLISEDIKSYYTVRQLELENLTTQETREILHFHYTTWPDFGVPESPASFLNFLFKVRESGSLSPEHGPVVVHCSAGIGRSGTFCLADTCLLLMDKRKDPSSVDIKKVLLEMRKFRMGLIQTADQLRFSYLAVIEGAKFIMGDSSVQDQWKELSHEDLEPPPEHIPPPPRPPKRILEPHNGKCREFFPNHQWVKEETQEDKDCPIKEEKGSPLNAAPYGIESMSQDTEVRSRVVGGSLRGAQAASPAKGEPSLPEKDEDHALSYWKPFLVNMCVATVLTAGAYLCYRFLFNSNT
PROTOCOL: Non-competitive reversible inhibition of human PTP1B
CONDITION: read-out: IC50
Answer with a number only, understood to be in µM.

Worked examples follow.
Entry "CC1(C)C=C2C(=NN(c3ccc(F)cc3)C(N)=C2C#N)CO1" ; IC50 = 4.9

Entry "CCOc1ccccc1N1N=C2COC(C)(C)C=C2C(C#N)=C1N" ; IC50 = 3.4

Entry "COc1ccccc1N1N=C2COC(C)(C)C=C2C(C#N)=C1N" ; IC50 = 6.2

Entry "CC(C)c1ccccc1N1N=C2CSCC=C2C(C#N)=C1N" ; IC50 = 2

Entry "COc1cccc(N2N=C3COC(C)(C)C=C3C(C#N)=C2N)c1" ; IC50 = 3.6

Entry "CCc1ccccc1N1N=C2COC(C)(C)C=C2C(C#N)=C1N" ; IC50 = 1.6

Entry "N#CC1=C(N)N(c2ccc(F)cc2)N=C2CSCC=C21" ; IC50 = 2

Entry "CC1(C)C=C2C(=NN(c3cccc(F)c3)C(N)=C2C#N)CO1" ; IC50 = 4.5

Note: attention shifts to another entry.
Entry "N#CC1=C(N)N(c2ccccc2)N=C2CSCC=C21" ; IC50 = 1.1

====

SYSTEM TESTED: Tyrosine-protein phosphatase non-receptor type 1 (Homo sapiens, UniProt P18031)
PROTOCOL: Non-competitive reversible inhibition of human PTP1B
CONDITION: read-out: pIC50 (converted)
READOUT LABEL: IC50
Write the numeric value and append its unit.

Worked examples follow.
Entry "CC1(C)C=C2C(=NN(c3cccc(C(F)(F)F)c3)C(N)=C2C#N)CO1" ; IC50 = 2.8 µM

Entry "N#CC1=C(N)N(c2ccc(F)cc2)N=C2CSCC=C21" ; IC50 = 2 µM

Entry "CC(C)c1cccc(N2N=C3COC(C)(C)C=C3C(C#N)=C2N)c1" ; IC50 = 8.2 µM

Further cases:
Entry "CCc1ccccc1N1N=C2COC(C)(C)C=C2C(C#N)=C1N" ; IC50 = 1.6 µM

Entry "N#CC1=C(N)N(c2ccccc2)N=C2CCCC=C21" ; IC50 = 10.4 µM

Entry "CC1(C)C=C2C(=NN(c3ccc(Oc4ccccc4)cc3)C(N)=C2C#N)CO1" ; IC50 = 22.7 µM

Entry "COc1ccc(N2N=C3COC(C)(C)C=C3C(C#N)=C2N)cc1" ; IC50 = 2.2 µM

Entry "CC1(C)C=C2C(=NN(c3ccccc3F)C(N)=C2C#N)CO1" ; IC50 = 2.4 µM

Entry "CC1(C)C=C2C(=NN(c3cccc(Oc4ccccc4)c3)C(N)=C2C#N)CO1" ; IC50 = 3.9 µM

Entry "COc1cccc(N2N=C3COC(C)(C)C=C3C(C#N)=C2N)c1" ; IC50 = 3.6 µM

Entry "CC1(C)C=C2C(=NN(c3ccccc3CO)C(N)=C2C#N)CO1" ; IC50 = 11.1 µM
